Molecular target: T1, APBA1_2, Q02410
T1 sequence (Q02410 742-832, limits assumed, looked up): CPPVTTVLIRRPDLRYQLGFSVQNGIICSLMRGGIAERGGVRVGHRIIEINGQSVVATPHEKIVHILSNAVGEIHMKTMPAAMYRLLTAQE
Assay: holdup assay
Parameters: key: below the threshold = too weak to quantify, mostly under pKd 3.1 to 4
Settings: plain residues with an end cap or a label only (N-terminal biotin on a linker: ado-ado)
MEASURE: pKd

Below are worked cases with known answers.
- BINDER: "NTALVESEDL [PALLS, Q8WX93;Q8WX93-1]"
  pKd: "below the threshold"
- BINDER: "ATKDKKITTV [EXOC4, Q96A65]"
  pKd: 3.82
- BINDER: "NISARRFTLC [FAM167B, Q9BTA0]"
  pKd: "below the threshold"
- BINDER: "EKPIDSETKM [SLC1A3, P43003]"
  pKd: "below the threshold"
- BINDER: "SSSVNVSSNL [CXCR1, P25024]"
  pKd: "below the threshold"
- BINDER: "DLLGGGSDSI [TNRC6B, Q9UPQ9]"
  pKd: "below the threshold"

input: Item VCMGDHWFDV [PRKN, O60260] has what recorded pKd?
output: 3.92

input: Entry STYCDYTIEI [FAM71C, Q8NEG0] please
output: below the threshold
